# Test system: MCF10A
# experimental.details: one-nucleolus phenotype percent effect, hitpick validation (relative to siNT 0% and siNOL11 100%); higher = more cells with one nucleolus
# measurement.conditions: 20 nM; 72 h
Measured one-nucleolus phenotype percent effect, listed per entry.

# residue.string, unit.tag, one-nucleolus phenotype percent effect
measured = [
    ("ACUGGGCUUGGAGUCAGAAG [hsa-miR-378g]", "%", 159),
    ("UGGAGUCCAGGAAUCUGCAUUUU [hsa-miR-1289]", "%", 130),
    ("GAGCAGGCGAGGCUGGGCUGAA [hsa-miR-4690-5p]", "%", 176),
    ("UUUGCAGUAACAGGUGUGAGCA [hsa-miR-6516-5p]", "%", 142),
    ("CAAUGGCACAAACUCAUUCUUGA [hsa-miR-5197-5p]", "%", 65.4),
    ("CUCGGCGCGGGGCGCGGGCUCC [hsa-miR-1469]", "%", 158),
    ("AAGGAGAUGCUCAGGCAGAU [hsa-miR-6888-5p]", "%", 173),
    ("UCUGCAGGGUUUGCUUUGAG [hsa-miR-1205]", "%", 166),
    ("UAAGGCACGCGGUGAAUGCC [hsa-miR-124-3p]", "%", 139),
    ("UGGUCUGCAAAGAGAUGACUGU [hsa-miR-4527]", "%", 151),
    ("GAGGGCAUGCGCACUUUGUCC [hsa-miR-4761-3p]", "%", 86.5),
    ("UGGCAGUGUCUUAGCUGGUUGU [hsa-miR-34a-5p]", "%", 28.9),
]

* * *

# System: MCF10A
# experimental.details: percent viability (nuclei count relative to siNT); higher = more viable cells
# measurement.conditions: 20 nM; 72 h

# residue.string, target.of.assay, unit.tag, percent viability
measured = [
    ("UGGGCUCAGGGUACAAAGGUU [hsa-miR-4437]", "MCF10A", "%", 24.3),
    ("UUGAAAGGCUAUUUCUUGGUC [hsa-miR-488-3p]", "MCF10A", "%", 36.8),
    ("UCUGUGAGACCAAAGAACUACU [hsa-miR-4677-3p]", "MCF10A", "%", 28.6),
    ("CAGGGUCAGCUGAGCAUG [hsa-miR-1178-5p]", "MCF10A", "%", 51.5),
    ("UAAGGGGUGUAUGGCAGAUGCA [hsa-miR-3936]", "MCF10A", "%", 19.2),
    ("UUGCUAAGUAGGCUGAGAUUGA [hsa-miR-4639-5p]", "MCF10A", "%", 22.7),
    ("UCCCACUACUUCACUUGUGA [hsa-miR-4301]", "MCF10A", "%", 45.1),
    ("GCUGACAGCAGGGCUGGCCGCU [hsa-miR-4526]", "MCF10A", "%", 59.2),
    ("UCUGUGCCCCUACUUCCCAG [hsa-miR-6889-3p]", "MCF10A", "%", 63),
    ("AACAUUCAUUGCUGUCGGUGGGU [hsa-miR-181b-5p]", "MCF10A", "%", 93.5),
    ("CGGUGAGCGCUCGCUGGC [hsa-miR-4792]", "MCF10A", "%", 36.6),
    ("UUCAUUUGCCUCCCAGCCUACA [hsa-miR-664b-3p]", "MCF10A", "%", 28.7),
    ("UUACGGACCAGCUAAGGGAGGC [hsa-miR-4788]", "MCF10A", "%", 43.7),
    ("CAUGCUGACCUCCCUCCUGCCCCAG [hsa-miR-4728-3p]", "MCF10A", "%", 69.7),
    ("GGCCUUGUUCCUGUCCCCA [hsa-miR-4312]", "MCF10A", "%", 22.7),
    ("CUGGGUGAGGGCAUCUGUGGU [hsa-miR-6736-5p]", "MCF10A", "%", 24.3),
    ("GUGGAAAGCAUGCAUCCAGGGUGU [hsa-miR-3978]", "MCF10A", "%", 61.1),
    ("UGUCCUCUAGGGCCUGCAGUCU [hsa-miR-3909]", "MCF10A", "%", 25.5),
    ("UCCCCAACCCCUGCCCGCAG [hsa-miR-6793-3p]", "MCF10A", "%", 27.6),
    ("UCUGGCCUUGACUUGACUCUUU [hsa-miR-3922-3p]", "MCF10A", "%", 35.7),
    ("UCAUCCUCGUCUCCCUCCCAG [hsa-miR-5196-3p]", "MCF10A", "%", 44.3),
    ("AACACUGGCCUUGCUAUCCCCA [hsa-miR-6757-3p]", "MCF10A", "%", 52.1),
    ("GAGUGUAGUUCUGAGCAGAGC [hsa-miR-4280]", "MCF10A", "%", 29.9),
    ("CAGGCCAUAUUGUGCUGCCUCA [hsa-miR-15a-3p]", "MCF10A", "%", 29.6),
]

* * *

# Tested on: MCF10A
# experimental.details: 5+ nucleoli phenotype percent effect (relative to siNT 0% and siKIF11 100%); higher = more cells with five or more nucleoli
# measurement.conditions: 20 nM; 72 h
Entries get a class label from measured 5+ nucleoli phenotype percent effect. See ranges: L (below -10%), M (-10% to below 20%), H (20% or more)

# residue.string, class.label
rows = [
    ("CGGUGAGCGCUCGCUGGC [hsa-miR-4792]", "L"),
    ("UAUGGCACUGGUAGAAUUCACU [hsa-miR-183-5p]", "L"),
    ("AGGUGUUAUCCUAUCCAUUUGC [hsa-miR-4694-5p]", "L"),
    ("UCAGGGAGUCAGGGGAGGGC [hsa-miR-4270]", "L"),
    ("GCUGCACCGGAGACUGGGUAA [hsa-miR-3130-3p]", "H"),
    ("CCCGGCCGGAACGCCGCACU [hsa-miR-6850-3p]", "H"),
    ("UUUCCUACCCUACCUGAAGACU [hsa-miR-3685]", "L"),
    ("UUAUAAAGCAAUGAGACUGAUU [hsa-miR-340-5p]", "L"),
    ("UGAGCUAAAUGUGUGCUGGGA [hsa-miR-610]", "H"),
    ("AAAAGUAAUUGUGGUUUUUGCC [hsa-miR-548d-5p]", "H"),
    ("AUCCUCUUUCGUCCUUCCCACU [hsa-miR-6881-3p]", "L"),
    ("CCUGACCCACCCCCUCCCGCAG [hsa-miR-4750-3p]", "H"),
    ("GGGUGCGGGCCGGCGGGG [hsa-miR-4466]", "M"),
    ("GUAAGCAGGGGCUCUGGGUGA [hsa-miR-6792-5p]", "L"),
    ("CCGGCCGCCGGCUCCGCCCCG [hsa-miR-1908-3p]", "H"),
    ("GCCCCGGCGCGGGCGGGUUCUGG [hsa-miR-4707-5p]", "H"),
    ("GACAUUCAGACUACCUG [hsa-miR-4262]", "M"),
    ("CAAGUCACUAGUGGUUCCGUU [hsa-miR-224-5p]", "L"),
    ("GGGCCUCUCUUGUCAUCCUGCAG [hsa-miR-6744-3p]", "H"),
    ("UUCAUGAACUGGGUCUAGCUUGG [hsa-miR-7154-5p]", "M"),
    ("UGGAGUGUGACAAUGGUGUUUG [hsa-miR-122-5p]", "M"),
    ("GCAGUUCUGAGCACAGUACAC [hsa-miR-4277]", "H"),
    ("AUGGCAUCGUCCCCUGGUGGCU [hsa-miR-4642]", "M"),
    ("UAUACCUCAGUUUUAUCAGGUG [hsa-miR-875-5p]", "H"),
    ("AAGUCCCACUAAUGCCAGC [hsa-miR-5588-3p]", "M"),
    ("CUAGGUAUGGUCCCAGGGAUCC [hsa-miR-331-5p]", "M"),
    ("GUGGUCUCUUGGCCCCCAG [hsa-miR-6848-3p]", "H"),
    ("CAGUGCAAUGUUAAAAGGGCAU [hsa-miR-130a-3p]", "H"),
    ("CCUCCCUGCCCGCCUCUCUGCAG [hsa-miR-7113-3p]", "H"),
    ("UGAGUACCGCCAUGUCUGUUGGG [hsa-miR-1911-5p]", "M"),
    ("GUUGGGACAAGAGGACGGUCUU [hsa-miR-3122]", "H"),
    ("AAGAGGAAGAAAUGGCUGGUUCUCAG [hsa-miR-3916]", "L"),
    ("GGAGUGGGCUGGUGGUU [hsa-miR-4481]", "M"),
    ("GGAUAUCAUCAUAUACUGUAAG [hsa-miR-144-5p]", "M"),
    ("AGGUGCUCCAGGCUGGCUCACA [hsa-miR-3907]", "L"),
    ("CCUCCCACACCCAAGGCUUGCA [hsa-miR-532-3p]", "H"),
    ("CCUGCGUGUUUUCUGUCCAA [hsa-miR-4520a-5p]", "M"),
    ("GGCUACAACACAGGACCCGGGC [hsa-miR-187-5p]", "M"),
    ("UAUGUAAUAUGGUCCACAUCUU [hsa-miR-380-3p]", "L"),
    ("UCAGCUGGCCCUCAUUUC [hsa-miR-1207-3p]", "L"),
    ("GUGCGGAACGCUGGCCGGGGCG [hsa-miR-6850-5p]", "L"),
    ("GAAGAAUAGGAGGGACUUUGU [hsa-miR-6507-5p]", "H"),
    ("CAUUCAACUAGUGAUUGU [hsa-miR-4272]", "H"),
    ("GCAUGUGAUGAAGCAAAUCAGU [hsa-miR-3607-5p]", "M"),
    ("CAGGCGUCUGUCUACGUGGCUU [hsa-miR-3186-5p]", "M"),
    ("CUAUACAAUCUAUUGCCUUCCC [hsa-let-7f-1-3p]", "L"),
    ("ACUGUAGUAUGGGCACUUCCAG [hsa-miR-20b-3p]", "L"),
]
